# System: Staphylococcus aureus
# experiment: Antimicrobial activity against Staphylococcus aureus ATCC 29213 measured after 18 hrs using solid lipid nanoparticle formulation by broth microdilution method
# Assay type: functional
# conditionNotes: ATCC 29213, 18 h
Quick reference: MIC of the listed items.
measureName: MIC (µg/mL)

# inputSmiles, unitLabel, resultModifier, numericValue
data = [
    ("COc1ccc([C@@H]2[C@@H](O)[C@H](O)[C@@H](C)N2C)cc1OC", "µg/mL", "=", 32),
    ("COc1ccc([C@@H]2[C@@H](O)[C@H](O)[C@@H](C)N2C)c(F)c1", "µg/mL", "≤", 0.5),
    ("COc1cc([C@@H]2[C@@H](O)[C@H](O)[C@@H](C)N2C)c(F)c(C)c1OC", "µg/mL", "=", 4),
    ("C[C@@H]1[C@@H](O)[C@H](O)[C@@H](c2ccccc2)N1C", "µg/mL", "=", 1020),
    ("COCc1ccc([C@@H]2[C@@H](O)[C@H](O)[C@@H](C)N2C)cc1", "µg/mL", "=", 2),
    ("Cc1ccc([C@@H]2[C@@H](O)[C@H](O)[C@@H](C)N2C)cc1", "µg/mL", "=", 1020),
    ("COc1ccc([C@@H]2[C@@H](O)[C@H](O)[C@@H](C)N2C)cc1", "µg/mL", "≤", 0.5),
]

The reported measurements were obtained from ChEMBL document CHEMBL4480414.
